measurement notes: Inhibitory activity against Opioid receptor delta 1 expressed in HEK293 cells
Type: cell-based, Homo sapiens
reported property: IC50 (nM)
Numbers only, in nM.

Specify measured IC50 for CNCC[C@@H](Oc1ccc(O)cc1C)c1ccccc1 .
1490

====

For each record, write down the corresponding pIC50.
target or system: Nociceptin receptor (Homo sapiens)
Sequence (P41146 whole entry): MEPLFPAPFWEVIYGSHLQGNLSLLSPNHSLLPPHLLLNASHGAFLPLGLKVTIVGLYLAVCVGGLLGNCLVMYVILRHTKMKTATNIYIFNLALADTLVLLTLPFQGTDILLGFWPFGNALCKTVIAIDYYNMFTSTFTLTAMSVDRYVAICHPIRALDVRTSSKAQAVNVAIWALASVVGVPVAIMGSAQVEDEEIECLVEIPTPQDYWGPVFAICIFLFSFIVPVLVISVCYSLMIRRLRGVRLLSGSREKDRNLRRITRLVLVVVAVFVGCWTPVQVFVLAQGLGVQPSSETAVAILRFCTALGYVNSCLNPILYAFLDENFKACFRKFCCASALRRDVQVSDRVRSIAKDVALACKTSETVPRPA
measurement notes: Inhibitory activity against Opioid receptor like 1 expressed in HEK293 cells
pIC50: −log10 of the molar value.

> print(dat)
                                   compound  result
1  CNCC[C@@H](Oc1ccccc1C)c1ccccc1 [ATOMOXETINE]  < 5.30

Shift focus to the following entry.
Provide pIC50, recorded with Nociceptin receptor (Homo sapiens), of CNCC[C@@H](Oc1ccc(O)cc1C)c1ccccc1
< 5.30
